Would you mind telling me the reported MIC of each entry?
- Tested on: P. aeruginosa ATCC 27853
- experiment_summary: microbe, parasite or virus in culture
- Type: cell-based
- conditions: Pseudomonas aeruginosa, ATCC27853, read-out: Minimum inhibitory concentration, P. aeruginosa ATCC 27853

O=C(NCCCS(=O)(=O)N1CCN(C(=O)NC(C(=O)N[C@H]2Cc3ccc(F)c(C(=O)O)c3OB2O)c2cc(F)c(O)c(O)c2Cl)C1=O)c1ccc(O)cc1 (some centres unmarked) | 2 to 4 µg/mL
O=C(O)c1c(F)ccc2c1OB(O)[C@@H](NC(=O)C(NC(=O)N1CCN(C3CCN(C(=O)c4cccc(O)c4)CC3)C(=O)C1=O)c1cc(F)c(O)c(O)c1Cl)C2 (some centres unmarked) | 2 to 4 µg/mL
O=C(NCCCN1CCN(C(=O)NC(C(=O)N[C@H]2Cc3ccc(F)c(C(=O)O)c3OB2O)c2cc(F)c(O)c(O)c2Cl)C(=O)C1=O)c1ccc(O)c(F)c1Cl (some centres unmarked) | 2 to 4 µg/mL
O=C(NCCCS(=O)(=O)N1CCN(C(=O)NC(C(=O)N[C@H]2Cc3ccc(F)c(C(=O)O)c3OB2O)c2cc(F)c(O)c(O)c2Cl)C1=O)Nc1ccncc1 (some centres unmarked) | 2 to 4 µg/mL

# evaluate next
Please indicate recorded MIC of O=C(NCCCN1CCN(C(=O)NC(C(=O)N[C@H]2Cc3ccc(F)c(C(=O)O)c3OB2O)c2cc(F)c(O)c(O)c2Cl)C(=O)C1=O)c1c(F)cncc1F (some centres unmarked) measured with P. aeruginosa ATCC 27853.
2 to 4 µg/mL

* * *

- system_name: A. baumannii PBP1a (Acinetobacter baumannii, UniProt A0ABX6CK30)
- Sequence (A0ABX6CK30 1-851): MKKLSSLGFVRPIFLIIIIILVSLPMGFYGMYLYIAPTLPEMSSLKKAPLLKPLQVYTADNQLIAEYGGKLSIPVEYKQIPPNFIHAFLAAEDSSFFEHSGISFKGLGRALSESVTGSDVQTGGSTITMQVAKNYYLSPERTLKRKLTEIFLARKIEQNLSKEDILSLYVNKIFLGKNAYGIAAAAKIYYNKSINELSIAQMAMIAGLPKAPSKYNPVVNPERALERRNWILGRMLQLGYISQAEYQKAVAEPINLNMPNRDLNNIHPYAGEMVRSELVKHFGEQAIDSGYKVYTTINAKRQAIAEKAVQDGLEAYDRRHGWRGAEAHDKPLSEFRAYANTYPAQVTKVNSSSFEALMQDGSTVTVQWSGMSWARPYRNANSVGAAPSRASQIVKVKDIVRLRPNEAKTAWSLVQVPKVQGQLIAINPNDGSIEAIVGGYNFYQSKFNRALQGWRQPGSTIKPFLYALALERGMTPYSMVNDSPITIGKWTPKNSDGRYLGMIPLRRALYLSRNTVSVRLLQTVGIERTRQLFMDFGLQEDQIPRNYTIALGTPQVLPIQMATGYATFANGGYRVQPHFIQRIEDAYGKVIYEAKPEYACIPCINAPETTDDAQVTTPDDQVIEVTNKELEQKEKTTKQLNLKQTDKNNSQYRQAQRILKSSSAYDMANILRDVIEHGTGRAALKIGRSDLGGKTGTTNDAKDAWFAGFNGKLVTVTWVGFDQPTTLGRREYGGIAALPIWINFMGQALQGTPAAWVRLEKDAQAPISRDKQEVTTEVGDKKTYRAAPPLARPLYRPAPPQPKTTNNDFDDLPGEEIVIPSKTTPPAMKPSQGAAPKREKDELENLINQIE
- experiment_summary: Bocillin-FL competition binding via gel filtration, A. baumannii PBP1a
- conditions: competition binding assay using Bocillin-FL via gel filtration; read-out: A. baumannii PBP1a Potency
pEC50: −log10 of the molar value.
Can you tell me pEC50 for the items I'm about to list?

O=C(O)c1c(F)ccc2c1OB(O)[C@@H](NC(=O)C(NC(=O)N1CCN(C3CCN(Cc4cc(O)cc(O)c4)CC3)C1=O)c1cc(F)c(O)c(O)c1Cl)C2 (single isomer, unassigned) | > 5.00

Each of the following entries comes with a recorded value; kindly state pEC50 for each.
1. O=C(O)c1c(F)ccc2c1OB(O)[C@@H](NC(=O)[C@H](NC(=O)N1CCN(C3CCN(C(=O)c4ccc(O)c(O)c4Cl)CC3)C1=O)c1ccc(P(=O)(O)O)cc1)C2
2. O=C(NCCN1CCN(C(=O)NC(C(=O)N[C@H]2Cc3ccc(F)c(C(=O)O)c3OB2O)c2cc(F)c(O)c(O)c2Cl)C1=O)c1cccc(O)c1 (some centres unmarked)
3. O=C(O)c1c(F)ccc2c1OB(O)[C@@H](NC(=O)[C@H](NC(=O)N1CCN(C3CCN(C(=O)Nc4cc(O)ccc4Cl)CC3)C1=O)c1cc(F)c(O)c(O)c1Cl)C2 (single isomer, unassigned)
4. O=C(NCCCN1CCN(C(=O)NC(C(=O)N[C@H]2Cc3ccc(F)c(C(=O)O)c3OB2O)c2cc(F)c(O)c(O)c2Cl)C(=O)C1=O)c1c(F)ccc(O)c1Cl (some centres unmarked)
5. O=C(NCCN1CCN(C(=O)NC(C(=O)N[C@H]2Cc3ccc(F)c(C(=O)O)c3OB2O)c2cc(F)c(O)c(O)c2Cl)C(=O)C1=O)c1ccc(O)cc1 (some centres unmarked)
6. O=C(NCCCS(=O)(=O)N1CCN(C(=O)NC(C(=O)N[C@H]2Cc3ccc(F)c(C(=O)O)c3OB2O)c2cc(F)c(O)c(O)c2Cl)C1=O)Nc1cccnc1 (some centres unmarked)

1: 3.60 to 4.30; 2: 4.30 to 5.00; 3: > 5.00; 4: > 5.00; 5: 4.30 to 5.00; 6: 4.30 to 5.00

Could you report pEC50 for every entry in the following list?
1. O=C(NCCCN1CCN(C(=O)NC(C(=O)N[C@H]2Cc3ccc(F)c(C(=O)O)c3OB2O)c2cc(F)c(O)c(O)c2Cl)C(=O)C1=O)c1cc(F)c(F)c(O)c1F (some centres unmarked)
2. Cc1cnccc1C(=O)NCCCN1CCN(C(=O)NC(C(=O)N[C@H]2Cc3ccc(F)c(C(=O)O)c3OB2O)c2cc(F)c(O)c(O)c2Cl)C(=O)C1=O (some centres unmarked)
3. O=C(NCCCN1CCN(C(=O)N[C@@H](C(=O)N[C@H]2Cc3ccc(F)c(C(=O)O)c3OB2O)c2cc(F)c(O)c(O)c2Cl)C(=O)C1=O)c1cc(F)c(O)cc1F (single isomer, unassigned)

["> 5.00", "4.30 to 5.00", "> 5.00"]

Below are 3 compounds. Give each one its pEC50.
1. O=C(O)c1c(F)ccc2c1OB(O)[C@@H](NC(=O)[C@H](NC(=O)N1CCN(C3CCN(C(=O)c4cc(O)c(F)c(O)c4)CC3)C1=O)c1cc(F)c(O)c(O)c1Cl)C2 (single isomer, unassigned)
2. O=C(NCCCN1CCN(C(=O)NC(C(=O)N[C@H]2Cc3ccc(F)c(C(=O)O)c3OB2O)c2cc(F)c(O)c(O)c2Cl)C(=O)C1=O)c1c(F)ccc(O)c1F (some centres unmarked)
3. O=C(O)c1c(F)ccc2c1OB(O)[C@@H](NC(=O)[C@H](NC(=O)N1CCN(C3CCN(C(=O)c4ccc(F)c(O)c4Cl)CC3)C1=O)c1cc(F)c(O)c(O)c1Cl)C2

1: > 5.00; 2: > 5.00; 3: > 5.00
